- Assay Info: Plasma concentration in mouse infected with Plasmodium berghei ANKA at 50 mg/kg/day, po after 1 hr by HPLC analysis
- Format: ADME, organism-based
- Design: route oral
The reader will find reported concentration at 1 h values listed item by item below.
Number first, unit second.

C[S+]([O-])c1cccc(-c2ccc3ncc(-c4ccc(S(C)(=O)=O)cc4)n3n2)c1 (stereo not drawn) = 590 nM
C[S+]([O-])c1ccc(-c2cnc3ccc(-c4cccc(S(=O)(=O)C5CC5)c4)nn23)cc1 (stereo not drawn) = 80 nM

# get_value(readout='concentration at 1 h', item= C[S+]([O-])c1ccc(-c2cnc3ccc(-c4cccc([S+](C)[O-])c4)nn23)cc1 (stereo not drawn) )
2440 nM
